Data origin, for the record: the Immune Epitope Database (IEDB)

- target of assay: HLA-A*02:06
- procedure text: IEDB peptide-MHC binding, purified MHC/competitive/radioactivity; filed as Kd, often an IC50 or EC50 that approximates it; bounds were set here for any values at or beyond the usual limits of such assays
- condition details: source organism: Lassa virus Josiah
pKd: −log10 of the molar value.
readout: pKd

1) FSTSFYLISI    8.03
2) RLLGTFTWT    6.86

----------
- target of assay: HLA-B*15:17
- procedure text: IEDB peptide-MHC binding, purified MHC/direct/fluorescence; filed as Kd, often an IC50 or EC50 that approximates it; bounds were set here for any values at or beyond the usual limits of such assays
- condition details: source organism: Giardia lamblia ATCC 50803
readout: Kd

1. EIRHRSGIQ    ≥ 20 µM
